Give apparent Kd (screen) for every item shown.
Target: T1, TNFR1 (Homo sapiens, UniProt P19438)
T1 chain: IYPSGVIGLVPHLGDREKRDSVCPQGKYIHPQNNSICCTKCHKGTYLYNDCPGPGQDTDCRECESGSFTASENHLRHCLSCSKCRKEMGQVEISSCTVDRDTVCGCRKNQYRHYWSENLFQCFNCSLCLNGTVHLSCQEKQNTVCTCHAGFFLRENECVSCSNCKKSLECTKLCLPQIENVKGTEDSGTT
Test: yeast display SC50

Worked examples follow.
binder="K85F (designed binder) SMEEEVEKAAKEYEKKKKEAIEKHLEKLKAKDKEAAERFLKELEEAAKEYAKDEAKTMSEEEAKRRAKKYKEKVLLSELSEEEQFEIKEAEEKLVRTILKYVEEAAK" observed="0.539 nM"
binder="A47M (designed binder) SMEEEVEKAAKEYEKKKKEAIEKHLEKLKAKDKEAAERFLKELEEAMKEYAKDEAKTMSEEEAKRRAKKYKEKVLLSELSEEEQKEIKEAEEKLVRTILKYVEEAAK" observed="0.446 nM"
binder="A20P (designed binder) SMEEEVEKAAKEYEKKKKEPIEKHLEKLKAKDKEAAERFLKELEEAAKEYAKDEAKTMSEEEAKRRAKKYKEKVLLSELSEEEQKEIKEAEEKLVRTILKYVEEAAK" observed="3.63 nM"
binder="R38P (designed binder) SMEEEVEKAAKEYEKKKKEAIEKHLEKLKAKDKEAAEPFLKELEEAAKEYAKDEAKTMSEEEAKRRAKKYKEKVLLSELSEEEQKEIKEAEEKLVRTILKYVEEAAK" observed="11.4 nM"
binder="V6F (designed binder) SMEEEFEKAAKEYEKKKKEAIEKHLEKLKAKDKEAAERFLKELEEAAKEYAKDEAKTMSEEEAKRRAKKYKEKVLLSELSEEEQKEIKEAEEKLVRTILKYVEEAAK" observed="2.25 nM"
binder="K69L (designed binder) SMEEEVEKAAKEYEKKKKEAIEKHLEKLKAKDKEAAERFLKELEEAAKEYAKDEAKTMSEEEAKRRAKLYKEKVLLSELSEEEQKEIKEAEEKLVRTILKYVEEAAK" observed="0.446 nM"
binder="L25T (designed binder) SMEEEVEKAAKEYEKKKKEAIEKHTEKLKAKDKEAAERFLKELEEAAKEYAKDEAKTMSEEEAKRRAKKYKEKVLLSELSEEEQKEIKEAEEKLVRTILKYVEEAAK" observed="1.86 nM"

Exercise: Quick one: apparent Kd (screen) of E3S (designed binder) SMSEEVEKAAKEYEKKKKEAIEKHLEKLKAKDKEAAERFLKELEEAAKEYAKDEAKTMSEEEAKRRAKKYKEKVLLSELSEEEQKEIKEAEEKLVRTILKYVEEAAK ?
Key: 2.73 nM

Origin of values: paper PMC12416549
